Molecular target: T1, 4H2253-bN
T1 chain: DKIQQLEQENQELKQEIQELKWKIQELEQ
Assay: two-hybrid library CCNG1;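 note: natural log of median RNA to DNA barcode read ratio; higher means stronger binding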
experimental-endpoint: interaction score
Give only the figure.

Below: 3 binders and their reported interaction score.
# binder, interaction score
rows = [
    ("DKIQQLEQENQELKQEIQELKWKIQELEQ [4H2253-bN]", 1.16),
    ("DKIQQLEQEIQELKQKNQELEWEIQELKQ [4H2162-bN]", -0.654),
    ("DKIQQLEQENQELEQKNQELKWEIQELEQ [4H2233-bN]", -0.322),
]

Prompt line: Reported interaction score for DEIQQLEQENQELEQKIQELEWKIQELKQ [4H166-bN] : what is it?
Response line: -0.769

Prompt line: Reported interaction score for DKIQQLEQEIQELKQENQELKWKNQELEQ [4H2143-bN] : what is it?
Response line: 0.598
